All figures here come from patent US11957759B1.

Measured Dmax, listed per entry.
tgt: B-RAF G466V (Homo sapiens, UniProt P15056, G466V)
Construct: expressed in transfected cells; host or cells: T-Rex 293 cells (Invitrogen #R71007)
Sequence (P15056 whole entry G466V): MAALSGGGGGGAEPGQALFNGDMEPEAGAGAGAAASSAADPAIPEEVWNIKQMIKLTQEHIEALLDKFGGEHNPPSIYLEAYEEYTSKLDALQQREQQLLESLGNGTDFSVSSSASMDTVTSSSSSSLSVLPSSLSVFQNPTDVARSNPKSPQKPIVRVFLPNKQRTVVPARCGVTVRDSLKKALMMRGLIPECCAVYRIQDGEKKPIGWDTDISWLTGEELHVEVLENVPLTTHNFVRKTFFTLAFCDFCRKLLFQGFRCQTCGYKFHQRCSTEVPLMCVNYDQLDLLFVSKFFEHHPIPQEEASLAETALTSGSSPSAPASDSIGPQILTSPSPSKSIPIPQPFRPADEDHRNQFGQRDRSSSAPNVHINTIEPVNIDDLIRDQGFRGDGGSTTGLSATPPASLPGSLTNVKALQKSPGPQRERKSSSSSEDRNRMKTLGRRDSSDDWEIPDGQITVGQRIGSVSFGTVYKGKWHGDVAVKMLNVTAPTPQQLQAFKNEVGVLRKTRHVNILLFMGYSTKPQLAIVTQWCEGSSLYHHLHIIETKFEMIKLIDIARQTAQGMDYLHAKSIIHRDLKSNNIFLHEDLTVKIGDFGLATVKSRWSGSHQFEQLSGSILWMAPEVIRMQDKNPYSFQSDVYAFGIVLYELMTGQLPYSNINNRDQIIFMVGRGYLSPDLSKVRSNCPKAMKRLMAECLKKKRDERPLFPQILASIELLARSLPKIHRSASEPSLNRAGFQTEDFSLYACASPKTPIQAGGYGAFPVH
protocol: Target protein degradation, assay D: T-Rex 293 cells, HA-BRAF_G466V, 384 well format
Assay type: cell-based
experimental-conditions: T-REx-293, Assay D, T-Rex 293 HA-BRAF_G466V cells, 24 hours, Examples 83-269

Answered cases to consult:
[[record]]
molecule = "COc1cc(N2CC(CN3CCN(c4ccc(-n5cnc6ccc(Oc7c(F)ccc(NS(=O)(=O)N8CC[C@@H](F)C8)c7C#N)cc6c5=O)cc4)CC3)C2)cc2c1C(=O)N([C@@H]1CCC(=O)NC1=O)C2"
tgt = "B-RAF G466V (Homo sapiens, UniProt P15056, G466V)"
result = "≥ 70%"

[[record]]
molecule = "Cn1c(=O)n(C2CCC(=O)NC2=O)c2cccc(N3CC4(CC(CN5CCN(c6ccc(-n7cnc8ccc(Oc9c(F)ccc(NS(=O)(=O)N%10CC[C@@H](F)C%10)c9C#N)cc8c7=O)cc6)CC5)C4)C3)c21 (some centres unmarked)"
tgt = "B-RAF G466V (Homo sapiens, UniProt P15056, G466V)"
result = "35 to 70%"

[[record]]
molecule = "N#Cc1c(NS(=O)(=O)N2CC[C@@H](F)C2)ccc(F)c1Oc1ccc2ncn(-c3cccc(N4CCCC(CN5CCN(c6ccc7c(c6)CN([C@H]6CCC(=O)NC6=O)C7=O)CC5)C4)c3)c(=O)c2c1 (some centres unmarked)"
tgt = "B-RAF G466V (Homo sapiens, UniProt P15056, G466V)"
result = "≤ 35%"

[[record]]
molecule = "CCN(C)S(=O)(=O)Nc1ccc(F)c(Oc2ccc3ncn(-c4ccc(N5CCN(CC6CCN(c7ccc8c(c7)CN(C7CCC(=O)NC7=O)C8=O)CC6)CC5)cc4)c(=O)c3c2)c1C#N (centres unmarked)"
tgt = "B-RAF G466V (Homo sapiens, UniProt P15056, G466V)"
result = "35 to 70%"


-- ask Field request: Dmax | item: N#Cc1c(NS(=O)(=O)N2CC[C@@H](F)C2)ccc(F)c1Oc1ccc2ncn(-c3ccc(N4CCC(CN5CC6(CCC(c7ccc8c(c7)CN([C@H]7CCC(=O)NC7=O)C8=O)CC6)C5)CC4)cc3)c(=O)c2c1
-- reply 35 to 70%
